pIC50: recorded values
Biological target: menin/MLL (terbium chelate-labeled menin, FITC-MBM1 peptide) (Homo sapiens, UniProt O00255, T541A)
Construct: Menin (a.a 1-610-6xhis tag)
Sequence (O00255 with tags, fused parts or gaps T541A): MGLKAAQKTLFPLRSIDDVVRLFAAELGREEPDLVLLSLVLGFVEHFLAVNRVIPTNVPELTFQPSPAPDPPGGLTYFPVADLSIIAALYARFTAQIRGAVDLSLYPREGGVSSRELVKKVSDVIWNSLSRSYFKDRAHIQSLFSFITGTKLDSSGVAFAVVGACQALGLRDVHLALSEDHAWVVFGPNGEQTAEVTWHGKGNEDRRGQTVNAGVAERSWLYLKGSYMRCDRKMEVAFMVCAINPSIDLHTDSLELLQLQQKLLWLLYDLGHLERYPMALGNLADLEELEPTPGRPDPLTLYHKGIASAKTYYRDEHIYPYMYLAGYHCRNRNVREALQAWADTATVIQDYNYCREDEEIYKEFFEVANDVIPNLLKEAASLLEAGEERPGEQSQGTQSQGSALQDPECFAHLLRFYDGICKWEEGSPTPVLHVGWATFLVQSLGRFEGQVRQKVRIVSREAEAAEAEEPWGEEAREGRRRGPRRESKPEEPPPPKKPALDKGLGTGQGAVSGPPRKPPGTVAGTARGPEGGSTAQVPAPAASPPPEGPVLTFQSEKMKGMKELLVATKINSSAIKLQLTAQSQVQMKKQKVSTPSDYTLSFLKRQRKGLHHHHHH
Experiment: Menin/MLL homogenous time-resolved fluorescence (HTRF) assay
Settings: 30 min incubation
Schema: pIC50 number; meaning minus log10 of the concentration expressed in molar units.

# COMPOUND, OBSERVED VALUE
rows = [
    ("CC(C)C([C@H]1C[C@@H](N2CCS(=O)(=O)CC2)C1)N1CC2(CCN(c3ncnnc3Oc3ccc(F)cc3-c3cncnc3C3CC3)C2)C1 (stereo partly shown)", 8.27),
    ("CC(C)[C@H]([C@H]1C[C@H](N2CC3(CCO3)C2)C1)N1CC2(CCN(c3ncnnc3Oc3ccc(F)cc3-c3cnncc3C3CC3)C2)C1 (single isomer, unassigned) [Compound 84a]", 7.67),
    ("CC(=O)N1CC2(C1)CN([C@H]1C[C@@H]([C@H](C(C)C)N3CC4(CCN(c5ncnnc5Oc5ccc(F)cc5-c5cnc(C)nc5C5CC5)C4)C3)C1)C2", 10.08),
    ("COc1cc(N[C@H]2C[C@@H]([C@@H](C(C)C)N3CC4(CCN(c5ncnnc5Oc5ccc(F)cc5-c5cncnc5C5CC5)C4)C3)C2)cnn1 (single isomer, unassigned)", 9.85),
    ("CCOC(=O)c1cnc(N[C@H]2C[C@@H](C(C(C)C)N3CC4(CCN(c5ncnnc5Oc5ccc(F)cc5-c5cncnc5C5CC5)C4)C3)C2)o1 (single isomer, unassigned)", 9.54),
]

# input Tell me the measured pIC50 of CC(=O)N[C@H]1C[C@@H](C(C(C)C)N2CC3(CCN(c4ncnnc4Oc4ccc(F)cc4-c4c[nH]c(=O)nc4C4CC4)C3)C2)C1 (stereo partly shown) , please.
# output 7.87

# input # iterate: CC(=O)N[C@H]1C[C@@H]([C@H](C(C)C)N2CC3(CCN(c4ncnnc4Oc4ccc(F)cc4-c4ncncc4C4CC4)C3)C2)C1 (single isomer, unassigned)
# output 7.01

# input # iterate: CO[C@@H]1CCN([C@H]2C[C@@H]([C@H](C(C)C)N3CC4(CCN(c5ncnnc5Oc5ccc(F)cc5-c5nnccc5C5CC5)C4)C3)C2)C1 (single isomer, unassigned)
# output 10.00

# input # iterate: CC(C)[C@@H]([C@H]1C[C@@H](N2CCC[C@@H](O)C2)C1)N1CC2(CCN(c3ncnnc3Oc3ccc(F)cc3-c3cccnc3C3CC3)C2)C1 (single isomer, unassigned)
# output 10.00

# input # iterate: CC(C)[C@H]([C@H]1C[C@@H](NC(=O)C2CC2)C1)N1CC2(CCN(c3ncnnc3Oc3ccc(F)cc3-c3nncn3C3CC3)C2)C1 (single isomer, unassigned)
# output 9.15

Provenance of the data: patent US20240417405A1
